Reference source for all entries: PubChem BioAssay

# Tested on: Neuregulin-1 EGF-like domain
# Protocol Text: binders of neuregulin-1 EGF-like domain, primary screen, biochemical, small-molecule microarray, 635 nm fluorescence (AID 1081);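 also: binding of the protein to compounds printed on small-molecule microarray slides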
# Stated Conditions: small-molecule microarray binding, higher = more signal
Quick rule for you: composite z-score at 1 or higher means condition met, lower means condition not met.

Molecule: COC(=O)[C@@]1(CCC(=O)OC(C)(C)C)N=C(c2ccc(OCCCO)cc2)O[C@H]1c1ccccc1CN=[N+]=[N-]
Group Label: condition not met
--
Molecule: C=CCNC(=O)[C@H]1[C@@H]2C(=O)O[C@@H](c3ccccc3)[C@@H](c3ccccc3)N2[C@@H](c2ccc(O)cc2)[C@]12C(=O)Nc1ccc(C#CC3=CCCCC3)cc12
Group Label: condition met
--
Molecule: CCCCN1CC=CC23O[C@@H]4C=CCOC(=O)[C@@H]4[C@H]2C(=O)N(CCO)[C@@H]3C1=O (stereo not given in full)
Group Label: condition not met
--
Molecule: CC[C@H](C)C(=O)O[C@H]1CC[C@]2(C)C3=C(CCC2C1(C)C)[C@]1(C)CC[C@H]([C@H](C)CCCC(C)C)[C@@]1(C)CC3 (stereo not given in full)
Group Label: condition not met
--
Molecule: CCCC[C@@H]1C[C@H]1[C@@H](NC(=O)Cc1ccccc1)c1ccc(Cl)cc1
Group Label: condition met
